- TESTED SYSTEM: Peroxisome proliferator-activated receptor alpha (Homo sapiens, UniProt Q07869)
- ASSAY NAME: Agonist activity at GAL4 tagged human PPARalpha ligand binding domain expressed in HEK293 cells by luciferase reporter gene assay
- Type: cell-based
- COND: read-out: EC50
This section presents compounds with their documented pEC50 values.
Notebook: values listed as pEC50 are -log10 of the concentration (mol/L).

Some compounds with known pEC50 results, for comparison:
CCOC(=O)N1C[C@H](C(=O)O)[C@H](c2cccc(OCCc3nc(-c4ccccc4)oc3C)c2)C1 (racemic) = 4.70
CCOC(=O)N1C[C@@H](Cc2cccc(OCCc3nc(-c4ccccc4)oc3C)c2)[C@@H](CC(=O)O)C1 = 5.54
CCOC(=O)N1C[C@H](CC(=O)O)[C@@H](c2cccc(OCCc3nc(-c4ccccc4)oc3C)c2)C1 (racemic) = 5.09

input: Given the compound CCOC(=O)N1C[C@@H](CCc2cccc(OCCc3nc(-c4ccccc4)oc3C)c2)[C@@H](C(=O)O)C1 (racemic) , write its reported pEC50.
output: 6.70

input: Give me measured pEC50, please, for this compound: Cc1oc(-c2ccccc2)nc1CCOc1cccc(C[C@@H]2CN(C(=O)Oc3ccccc3)C[C@@H]2C(=O)O)c1
output: 8.40

input: Recall and state the measured pEC50 for Cc1oc(-c2ccccc2)nc1CCOc1ccc(C[C@H]2CN(c3nccc(C(F)(F)F)n3)C[C@@H]2C(=O)O)cc1 .
output: 6.00

input: Supply measured pEC50 of CCOC(=O)N1C[C@@H](Cc2ccc(OCCc3nc(-c4ccccc4)oc3C)cc2)[C@@H](C(=O)O)C1 (racemic) in your reply.
output: 8.22

input: Consider the compound Cc1oc(-c2ccccc2)nc1CCOc1ccc(C[C@@H]2CN(C(=O)Oc3ccccc3)C[C@@H]2C(=O)O)cc1 (racemic) and give its recorded pEC50.
output: 9.00

====

- ASSAY NAME: Oral bioavailability in rat at 10 mg/kg
- Type: ADME, organism-based
- COND: in vivo
MEASURED PROPERTY: bioavailability (%)
Output spec: scalar in %, unitless text.

input: Find the measured bioavailability of Cc1oc(-c2ccccc2)nc1CCOc1ccc(C[C@@H]2CN(c3nccc(C(F)(F)F)n3)C[C@@H]2C(=O)O)cc1 and report it.
output: 65

====

- ASSAY NAME: Half life in rat at 10 mg/kg, po
- Assay type: ADME, organism-based
- Set-up: dose 10 mg/kg, route oral
- COND: in vivo
MEASURED PROPERTY: half-life (h)
Lab book: enter the figure in h, no units written.

input: Specify half-life for Cc1oc(-c2ccccc2)nc1CCOc1ccc(C[C@@H]2CN(c3nccc(C(F)(F)F)n3)C[C@@H]2C(=O)O)cc1 and stop.
output: 1.54

====

- TESTED SYSTEM: Peroxisome proliferator-activated receptor alpha (Homo sapiens)
- ASSAY NAME: Agonist activity at GAL4 tagged human PPARalpha ligand binding domain expressed in HEK293 cells by luciferase reporter gene assay
- Format: cell-based
- COND: read-out: EC50
MEASURED PROPERTY: EC50 (nM)
// units = nM; emit number, no label

Reference set, count: 3
CCOC(=O)N1C[C@H](CC(=O)O)[C@@H](Cc2cccc(OCCc3nc(-c4ccccc4)oc3C)c2)C1 (racemic) = 6
Cc1oc(-c2ccccc2)nc1CCOc1cccc(C[C@H]2CN(C(=O)Oc3ccccc3)C[C@@H]2C(=O)O)c1 (racemic) = 2590
CCOC(=O)N1C[C@H](Cc2cccc(OCCc3nc(-c4ccccc4)oc3C)c2)[C@H](C(=O)O)C1 = 10900

API: the following record is the query input.
input: Fill in reported EC50 for this entry: CCOC(=O)N1C[C@@H](Cc2cccc(OCCc3nc(-c4ccccc4)oc3C)c2)[C@@H](C(=O)O)C1
output: 3

====

- TESTED SYSTEM: Peroxisome proliferator-activated receptor alpha (Homo sapiens)
- Sequence (Q07869 whole entry): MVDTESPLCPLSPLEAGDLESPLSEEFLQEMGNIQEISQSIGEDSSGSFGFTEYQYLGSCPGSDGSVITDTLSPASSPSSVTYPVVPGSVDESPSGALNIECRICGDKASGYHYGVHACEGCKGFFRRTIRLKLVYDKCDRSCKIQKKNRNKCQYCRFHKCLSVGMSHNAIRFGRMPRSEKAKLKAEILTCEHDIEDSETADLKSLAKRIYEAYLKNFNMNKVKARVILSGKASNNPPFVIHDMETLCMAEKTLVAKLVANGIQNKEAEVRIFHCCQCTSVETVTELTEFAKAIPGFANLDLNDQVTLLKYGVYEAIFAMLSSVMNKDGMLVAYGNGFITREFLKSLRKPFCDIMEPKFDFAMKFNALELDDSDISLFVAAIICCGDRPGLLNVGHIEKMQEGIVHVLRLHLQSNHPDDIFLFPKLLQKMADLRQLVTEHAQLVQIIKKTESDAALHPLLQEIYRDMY
- ASSAY NAME: Binding affinity to PPARalpha (unknown origin) using fluorescein-tagged dual PPARalpha/gamma activator by homogeneous fluorescence polarization binding assay
MEASURED PROPERTY: log10(IC50) (log10 of the value in µM)
Remember, log10 of IC50, in µM.

The following molecules have reported results that may help.
Cc1oc(-c2ccccc2)nc1CCOc1ccc(C[C@H]2CN(c3nccc(C(F)(F)F)n3)C[C@@H]2C(=O)O)cc1 = 0.05
CCOC(=O)N1C[C@@H](Cc2cccc(OCCc3nc(-c4ccccc4)oc3C)c2)[C@@H](CC(=O)O)C1 = 0.74
CCOC(=O)N1C[C@@H](Cc2cccc(OCCc3nc(-c4ccccc4)oc3C)c2)[C@@H](C(=O)O)C1 = -0.59

input: Identify measured log10(IC50) associated with Cc1oc(-c2ccccc2)nc1CCOc1ccc(C[C@@H]2CN(c3nc4ccccc4o3)C[C@@H]2C(=O)O)cc1 (racemic)
output: 0.34

input: State, in one line, measured log10(IC50) of Cc1ccnc(N2C[C@@H](Cc3ccc(OCCc4nc(-c5ccccc5)oc4C)cc3)[C@@H](C(=O)O)C2)n1 (racemic)
output: 0.60

input: Please list log10(IC50) recorded for the molecule Cc1oc(-c2ccccc2)nc1CCOc1ccc([C@H]2CN(C(=O)Oc3ccccc3)C[C@@H]2C(=O)O)cc1 (racemic)
output: 0.46

input: Return log10(IC50) (reported value) for this molecule: Cc1oc(-c2ccccc2)nc1CCOc1ccc(C[C@@H]2CN(c3nccc(C(F)(F)F)n3)C[C@@H]2C(=O)O)cc1
output: -0.02

input: Please report the measured log10(IC50) for Cc1oc(-c2ccccc2)nc1CCOc1cccc(C[C@@H]2CN(c3ccccc3)C[C@@H]2C(=O)O)c1
output: -1.15

input: Output measured log10(IC50) for this item: Cc1oc(-c2ccccc2)nc1CCOc1cccc(C[C@H]2CN(c3nccc(C(F)(F)F)n3)C[C@H]2C(=O)O)c1
output: 0.05

input: Item CCOC(=O)N1C[C@H](CCc2ccc(OCCc3nc(-c4ccccc4)oc3C)cc2)[C@@H](C(=O)O)C1 (racemic) : provide log10(IC50)
output: 0.26

input: Complete the entry with log10(IC50) for Cc1oc(-c2ccccc2)nc1CCOc1cccc(C[C@@H]2CN(c3ccccc3)C[C@@H]2C(=O)O)c1 (racemic)
output: -1.40

input: Find the measured log10(IC50) of CCOC(=O)N1C[C@@H](Cc2cccc(OCCc3nc(-c4ccccc4)oc3C)c2)[C@@H](C(=O)O)C1 (racemic) and report it.
output: -0.77

input: Complete the entry with log10(IC50) for CCOC(=O)N1C[C@H](CC(=O)O)[C@@H](Cc2cccc(OCCc3nc(-c4ccccc4)oc3C)c2)C1 (racemic)
output: 0.33

====

- TESTED SYSTEM: Peroxisome proliferator-activated receptor gamma (Homo sapiens, UniProt P37231)
- Sequence (P37231 whole entry, the tested form may be a part): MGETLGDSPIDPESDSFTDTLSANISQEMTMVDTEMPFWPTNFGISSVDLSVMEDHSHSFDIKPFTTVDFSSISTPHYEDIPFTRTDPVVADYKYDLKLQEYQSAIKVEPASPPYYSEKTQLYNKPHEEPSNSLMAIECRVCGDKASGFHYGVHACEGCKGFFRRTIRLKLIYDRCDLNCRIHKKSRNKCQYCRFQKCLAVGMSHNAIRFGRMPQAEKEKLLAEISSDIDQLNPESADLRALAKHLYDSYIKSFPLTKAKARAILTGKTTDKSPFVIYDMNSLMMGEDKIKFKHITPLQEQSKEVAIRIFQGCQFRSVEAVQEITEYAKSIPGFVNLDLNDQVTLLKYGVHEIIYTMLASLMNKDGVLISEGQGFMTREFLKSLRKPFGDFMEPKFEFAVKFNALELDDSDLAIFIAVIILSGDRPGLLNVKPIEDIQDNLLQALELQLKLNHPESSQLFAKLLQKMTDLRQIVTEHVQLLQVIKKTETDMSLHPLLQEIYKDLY
- ASSAY NAME: Agonist activity at GAL4 tagged human PPARgamma ligand binding domain expressed in HEK293 cells by luciferase reporter gene assay
MEASURED PROPERTY: pEC50
To interpret pEC50, take it as minus log10 of a concentration measured in moles per litre.

Solved cases (5 shown):
Cc1ccnc(N2C[C@@H](Cc3ccc(OCCc4nc(-c5ccccc5)oc4C)cc3)[C@@H](C(=O)O)C2)n1 (racemic) = 6.20
Cc1oc(-c2ccccc2)nc1CCOc1ccc([C@@H]2CN(C(=O)Oc3ccccc3)C[C@@H]2CC(=O)O)cc1 (racemic) = 5.38
Cc1oc(-c2ccccc2)nc1CCOc1cccc(C[C@@H]2CN(C(=O)Oc3ccccc3)C[C@@H]2C(=O)O)c1 = 5.70
CCOC(=O)N1C[C@@H](Cc2cccc(OCCc3nc(-c4ccccc4)oc3C)c2)[C@@H](C(=O)O)C1 = 8.05
Cc1oc(-c2ccccc2)nc1CCOc1ccc(C[C@@H]2CN(C(=O)Oc3ccccc3)C[C@@H]2C(=O)O)cc1 (racemic) = 6.19

Alright, here's another compound for you.
input: Give recorded pEC50. Cc1oc(-c2ccccc2)nc1CCOc1cccc(C[C@@H]2CN(c3nccc(C(F)(F)F)n3)C[C@@H]2C(=O)O)c1
output: 5.60
